Where these numbers come from: PubChem BioAssay (NCI)

# System: SW-620 colon
# ASSAY_REMARKS: NCI-60 one-dose screen, 48 h
# EXPERIMENTAL_PARAMETERS: 10 µM unless noted
About 83,000 compounds went through this panel and 20% of them were active in at least one assay; those are over-represented in the sample as a whole. Calls of active or inactive are those of the source. Rule for the calls: active = growth percent below 10; inactive = the rest.
Give your call using only these classes: 1.0 for active, 0.0 for inactive

Here are 6 compounds together with their reported answers.
INSERT INTO results (compound, category_label) VALUES
  ('Cn1cc(-c2nc(-c3c[nH]c4c(Cl)nccc34)cs2)c2ccccc21', 0.0),
  ('CC(=O)OCCOc1cc(Cl)c(Cl)cc1Cl', 0.0),
  ('O=C(CSc1nnc(-c2cc(-c3ccc(Cl)cc3)nc3ccccc23)n1-c1ccccc1)Nc1ccc(Cl)cc1', 0.0),
  ('Cn1cc(-c2nc(-c3c[nH]c4ccncc34)cs2)c2cc(F)ccc21', 1.0),
  ('COc1cc2c(c(OC)c1OC)CCC(c1cccc(C(=O)Nc3ccccc3Br)c1)O2 (stereo not given)', 0.0),
  ('C#CCOc1ccc(C2=NN(C)C3N=C(Cl)c4ncn(C)c4N23)cc1OCC#C (stereo not given)', 0.0);

Hi, do you know how "Nc1ncc(-c2ccc3ncnc(N4CCc5ccc(Cl)cc54)c3c2)cn1" came out in this test?
1.0

Which outcome did this test record for the compound "NCCCCCNc1noc(Cc2c[nH]c3cc(Br)ccc23)n1" ?
0.0

Check the results log: what was the call for CN1C(=O)N(C)C2C1NN=c1s/c(=C\c3ccc(F)cc3)c(=O)n12 (stereo not given) ?
0.0

Field: outcome | Entry: "COc1cc2c(cc1OC)CC[N+](CCC[N+](C)(C)C)=C2"
0.0
